Entries and their EC50 values follow.
- Target Of Assay: T1, human CNTN4-rabbit Fc (human; rabbit, UniProt Q8IWV2 19-1000, limits assumed)
- T1 construct: not shown: rabbit Fc
- T1 sequence (looked up): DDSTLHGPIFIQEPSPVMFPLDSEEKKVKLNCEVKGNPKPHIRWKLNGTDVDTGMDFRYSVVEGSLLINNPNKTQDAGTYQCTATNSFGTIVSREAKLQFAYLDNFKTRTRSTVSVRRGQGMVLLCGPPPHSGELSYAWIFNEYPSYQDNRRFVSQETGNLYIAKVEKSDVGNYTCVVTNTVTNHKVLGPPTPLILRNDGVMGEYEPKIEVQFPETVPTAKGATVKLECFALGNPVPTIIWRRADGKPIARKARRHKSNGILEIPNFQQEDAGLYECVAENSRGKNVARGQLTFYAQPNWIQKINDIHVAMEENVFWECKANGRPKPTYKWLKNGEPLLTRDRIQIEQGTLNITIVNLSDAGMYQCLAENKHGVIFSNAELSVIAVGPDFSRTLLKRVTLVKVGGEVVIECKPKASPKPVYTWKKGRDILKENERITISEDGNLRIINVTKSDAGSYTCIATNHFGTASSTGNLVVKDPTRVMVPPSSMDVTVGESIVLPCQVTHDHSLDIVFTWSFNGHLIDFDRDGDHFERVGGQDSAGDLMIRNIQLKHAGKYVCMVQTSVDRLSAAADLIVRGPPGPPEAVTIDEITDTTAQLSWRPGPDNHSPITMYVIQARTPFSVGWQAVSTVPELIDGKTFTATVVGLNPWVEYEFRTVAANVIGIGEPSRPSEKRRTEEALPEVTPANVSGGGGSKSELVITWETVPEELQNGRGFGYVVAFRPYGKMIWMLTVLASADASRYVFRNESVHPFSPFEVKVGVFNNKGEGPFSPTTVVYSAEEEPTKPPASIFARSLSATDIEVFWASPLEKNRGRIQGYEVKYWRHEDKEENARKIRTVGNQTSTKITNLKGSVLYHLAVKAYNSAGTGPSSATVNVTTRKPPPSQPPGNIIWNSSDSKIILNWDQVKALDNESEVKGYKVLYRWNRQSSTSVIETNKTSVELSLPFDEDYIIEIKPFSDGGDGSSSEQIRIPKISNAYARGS
- Test Description: ELISA, plate coated with antigen-rabbit Fc, anti-human IgG Fc-HRP
Give the value, in units of nM, as a plain number.

Binder | Readout Label | Measure Unit | Readout Number
anti-CNTN4 IgG A35SF5 (antibody, V domains shown, human IgG4 (S228P)) VH: AVTLDESGGGLHTPGGALSLVCKASGFTFSSYGMAWVRQAPGKGLEWVAGITSSGSSAGYGPAVKGRATISRDNGQSTVRLQLNNLRAEDTATYYCAKDGYIYSGADSDSIDAWGHGTEVIVSS VL: ALTQPSSVSANPGETVEITCSGSSGSNYGWYQQKSPGSAPVTLIYYNDNRPSDIPSRFSGSKSGSTGTLTITGVQVEDEAVYYCGAWESSSNPDIFGAGTTLTVL | EC50 | nM | 0.01

Here is another binder to look at.
*Q* Which EC50 value belongs to anti-CNTN4 IgG A35SF3 (antibody, V domains shown, human IgG4 (S228P)) VH: AVTLDESGGGLQTPGGGLSLVCKASGFTFSSYGMAWVRQAPGKGLEWVAGITSSGSSAGYGPAVKGRATISRDNGQSTVRLQLNNLRAEDTATYYCAKDGYIYSGADSDSIDAWGHGTEVIVSS VL: ALTQPSSVSANLGGTVEITCSGSSGSYGWYQQKAPGSAPVTVIYDNTNRPSDIPSRFSGSKSGSTGTLTITGVQAEDEAVYFCGGYDSSTIFGAGTTLTVL ?
*A* 0.01
